assay: self-splicing fitness, log relative to wild type (ln ratio); higher = more splicing; Tetrahymena group I intron in knt gene, E. coli kanamycin selection, DiMSum; sequences stand for … in CUCUCU…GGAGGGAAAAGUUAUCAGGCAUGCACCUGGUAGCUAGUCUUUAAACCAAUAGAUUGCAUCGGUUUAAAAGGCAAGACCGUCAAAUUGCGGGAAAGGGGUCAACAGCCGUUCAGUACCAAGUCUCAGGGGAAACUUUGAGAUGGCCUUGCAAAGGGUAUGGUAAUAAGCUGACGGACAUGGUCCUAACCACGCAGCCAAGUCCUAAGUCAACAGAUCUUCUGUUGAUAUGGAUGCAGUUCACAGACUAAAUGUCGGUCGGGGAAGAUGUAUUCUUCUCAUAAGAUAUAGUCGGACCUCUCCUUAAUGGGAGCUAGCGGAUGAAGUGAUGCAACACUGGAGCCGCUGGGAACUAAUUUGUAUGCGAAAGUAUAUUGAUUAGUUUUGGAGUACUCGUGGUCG; details: 30 °C;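 note: selection with 25 µg/mL kanamycin versus none on LB agar overnight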
VALUE TYPE: self-splicing fitness (ln)
Answer with the value's number alone.

primary_sequence=AAAUAGCAAUAUUACGGUUU value_type="self-splicing fitness (ln)" reported_result=-1.3

Fill in: self-splicing fitness (ln) of "AUUAAGCAAUAUUACGUGCC" is ___
-0.626

What self-splicing fitness (ln) value was documented for this sequence, "CGCAAGCAAUAUUACGUUAU" ?
-3.78

====

experiment: self-splicing fitness, log relative to wild type (ln ratio); higher = more splicing; Tetrahymena group I intron in knt gene, E. coli kanamycin selection, DiMSum; sequences stand for … in CUCUCU…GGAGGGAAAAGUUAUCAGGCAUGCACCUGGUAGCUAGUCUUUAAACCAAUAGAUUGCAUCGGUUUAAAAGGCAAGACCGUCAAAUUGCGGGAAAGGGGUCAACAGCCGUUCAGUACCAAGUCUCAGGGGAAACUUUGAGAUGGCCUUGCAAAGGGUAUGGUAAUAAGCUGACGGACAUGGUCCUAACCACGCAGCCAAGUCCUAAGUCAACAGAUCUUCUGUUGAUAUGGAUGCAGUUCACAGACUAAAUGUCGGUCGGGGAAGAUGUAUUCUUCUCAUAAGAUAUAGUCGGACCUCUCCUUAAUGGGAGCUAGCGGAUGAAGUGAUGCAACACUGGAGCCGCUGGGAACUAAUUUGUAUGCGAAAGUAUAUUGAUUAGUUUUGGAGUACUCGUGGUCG; settings: 37 °C
If the reported self-splicing fitness (ln) equals or exceeds -2, assign fulfilled. If not, assign not fulfilled.

primary_sequence=GGUGAGCAAUAUUACGUUUC class_label=fulfilled
primary_sequence=GCACAGCAAUAUUACGAAUU class_label=fulfilled

Check the entry "CUGGAGCAAUAUUACGGCAG" : does self-splicing fitness (ln) equal or exceed -2?
fulfilled

Is the recorded value of self-splicing fitness (ln) equal to or greater than -2 for this sequence? "CGUCAGCAAUAUUACGGAGG"
fulfilled

Reported self-splicing fitness (ln) reaches at least -2 for "CGUCAGCAAUAUUACGAAGG" ?
fulfilled

Can "ACACAGCAAUAUUACGAACA" be said to have self-splicing fitness (ln) at or above -2?
fulfilled

Hello, I need to know if "UACAAGCAAUAUUACGAGCG" has measured self-splicing fitness (ln) not below -2. Thanks!
fulfilled

Textbook exercise: given the entry "CUAAAGCAAUAUUACGUACU" , state whether its self-splicing fitness (ln) is greater than or equal to -2.
not fulfilled

Please tell me: is the sequence "UCAGAGCAAUAUUACGUUUC" at or over -2 in terms of self-splicing fitness (ln)?
not fulfilled

Given the entry "CCAAAGCAAUAUUACGUGGU" , answer whether its self-splicing fitness (ln) meets or surpasses -2.
not fulfilled

hey, is self-splicing fitness (ln) for this one >= -2? "CAGUAGCAAUAUUACGCGAA"
not fulfilled

Is reported self-splicing fitness (ln) greater than or equal to -2 here: "AUAUAGCAAUAUUACGGUGG"
not fulfilled

Hi, just wondering whether "ACACAGCAAUAUUACGAGUU" shows self-splicing fitness (ln) of -2 or higher.
not fulfilled

Could you please find out whether "GCAUAGCAAUAUUACGGGUG" has self-splicing fitness (ln) that meets -2 or exceeds it?
fulfilled

Test whether the sequence "GGAUAGCAAUAUUACGCAUU" records self-splicing fitness (ln) of -2 or higher.
fulfilled

Is the recorded value of self-splicing fitness (ln) equal to or greater than -2 for this sequence? "AUUUAGCAAUAUUACGUGCA"
fulfilled

Quick check: does "CAUGAGCAAUAUUACGGAUC" have self-splicing fitness (ln) greater than or equal to -2?
not fulfilled
